// data source = the supplement of paper PMC8612539

Test system: Escherichia coli
protocol text: minimum inhibitory concentration (MIC)
conditions used: isolate (source animal id): 168
minimum inhibitory concentration for assorted compounds

Illustrative cases are given below, each with its answer.
compound	minimum inhibitory concentration
COc1cc(Cc2cnc(N)nc2N)cc(OC)c1OC.Cc1cc(NS(=O)(=O)c2ccc(N)cc2)no1 [trimethoprim-sulfamethoxazole]	≤ 2 µg/mL
NC[C@@H]1O[C@H](O[C@H]2[C@@H](O)[C@H](O[C@@H]3[C@@H](O)[C@H](N)C[C@H](N)[C@H]3O[C@H]3O[C@H](CN)[C@@H](O)[C@H](O)[C@H]3N)O[C@@H]2CO)[C@H](N)[C@@H](O)[C@@H]1O [Neomycin]	≤ 4 µg/mL

Prompt line: For Escherichia coli, give the measured minimum inhibitory concentration of the entry CC1(C)S[C@@H]2[C@H](NC(=O)Cc3ccccc3)C(=O)N2[C@H]1C(=O)O [Penicillin]
Response line: > 8 µg/mL

Prompt line: State the measured minimum inhibitory concentration (Escherichia coli) of CCN1CCN(c2cc3c(cc2F)c(=O)c(C(=O)O)cn3C2CC2)CC1 [Enrofloxacin]
Response line: ≤ 0.12 µg/mL

Prompt line: Look up and report measured minimum inhibitory concentration (Escherichia coli) for the following compound: CCC[C@@H]1C[C@@H](C(=O)N[C@@H]([C@H]2O[C@H](SC)[C@H](O)[C@@H](O)[C@H]2O)[C@H](C)Cl)N(C)C1 [Clindamycin]
Response line: > 16 µg/mL

====

Test system: Mannheimia haemolytica
protocol text: minimum inhibitory concentration (MIC)
conditions used: isolate (source animal id): 25
Listed next: entries and their corresponding minimum inhibitory concentration.

Please review the entries below; each comes with its answer.
CC[C@H]1OC(=O)C[C@@H](O)[C@H](C)[C@@H](O[C@@H]2O[C@H](C)[C@@H](O)[C@H](N(C)C)[C@H]2O)[C@@H](CCN2C[C@H](C)C[C@H](C)C2)C[C@@H](C)C(=O)/C=C/C(C)=C/[C@@H]1CO[C@@H]1O[C@H](C)[C@@H](O)[C@@H](OC)[C@H]1OC > 16 µg/mL
COc1cc(NS(=O)(=O)c2ccc(N)cc2)nc(OC)n1 > 256 µg/mL

Here's the next entry for you.
Prompt line: Give the reported minimum inhibitory concentration for this molecule. "COc1cc(Cc2cnc(N)nc2N)cc(OC)c1OC.Cc1cc(NS(=O)(=O)c2ccc(N)cc2)no1"
Response line: ≤ 2 µg/mL

====

Overview of recorded minimum inhibitory concentration for various compounds
Test system: Escherichia coli
protocol text: minimum inhibitory concentration (MIC)
conditions used: isolate (source animal id): 114

Use these answered entries as a reference point.
compound	minimum inhibitory concentration
CNC(C)C1CCC(N)C(OC2C(N)CC(N)C(OC3OCC(C)(O)C(NC)C3O)C2O)O1 (stereo not drawn)	≤ 1 µg/mL
CCC[C@@H]1C[C@@H](C(=O)N[C@@H]([C@H]2O[C@H](SC)[C@H](O)[C@@H](O)[C@H]2O)[C@H](C)Cl)N(C)C1	> 16 µg/mL

Prompt line: Respond only with minimum inhibitory concentration recorded for "C=C[C@]1(C)C[C@@H](OC(=O)CSCCN(CC)CC)[C@]2(C)[C@H](C)CC[C@]3(CCC(=O)[C@H]32)[C@@H](C)[C@@H]1O"
Response line: > 32 µg/mL

====

System: Mannheimia haemolytica
protocol text: minimum inhibitory concentration (MIC)
conditions used: isolate (source animal id): 28
value type: minimum inhibitory concentration

Here's what some known entries look like.
compound	minimum inhibitory concentration
COc1cc(NS(=O)(=O)c2ccc(N)cc2)nc(OC)n1 [sulfadimethoxine]	≤ 256 µg/mL
COc1cc(Cc2cnc(N)nc2N)cc(OC)c1OC.Cc1cc(NS(=O)(=O)c2ccc(N)cc2)no1 [trimethoprim-sulfamethoxazole]	≤ 2 µg/mL
CC[C@H]1OC(=O)C[C@@H](O)[C@H](C)[C@@H](O[C@@H]2O[C@H](C)[C@@H](O[C@H]3C[C@@](C)(O)[C@@H](O)[C@H](C)O3)[C@H](N(C)C)[C@H]2O)[C@@H](CC=O)C[C@@H](C)C(=O)/C=C/C(C)=C/[C@@H]1CO[C@@H]1O[C@H](C)[C@@H](O)[C@@H](OC)[C@H]1OC [Tylosin]	> 32 µg/mL

Prompt line: Input CN1C[C@@H]2C[C@H]1CN2c1cc2c(cc1F)c(=O)c(C(=O)O)cn2C1CC1 [Danofloxacin] , output reported minimum inhibitory concentration.
Response line: > 1 µg/mL

====

System: Histophilus somni
protocol text: minimum inhibitory concentration (MIC)
conditions used: isolate (source animal id): 200
value type: minimum inhibitory concentration

Prompt line: Report minimum inhibitory concentration, nothing else, for this compound: CS(=O)(=O)c1ccc([C@@H](O)[C@@H](CF)NC(=O)C(Cl)Cl)cc1 [Florfenicol]
Response line: ≤ 0.25 µg/mL

Prompt line: Look up and report measured minimum inhibitory concentration for this entry: CO/N=C(\C(=O)N[C@@H]1C(=O)N2C(C(=O)O)=C(CSC(=O)c3ccco3)CS[C@H]12)c1csc(N)n1 [Ceftiofur]
Response line: ≤ 0.25 µg/mL

Prompt line: Identify the reported minimum inhibitory concentration for the following entry. CC1(C)S[C@@H]2[C@H](NC(=O)Cc3ccccc3)C(=O)N2[C@H]1C(=O)O [Penicillin]
Response line: ≤ 0.12 µg/mL

Prompt line: Using known records, supply minimum inhibitory concentration for COc1cc(NS(=O)(=O)c2ccc(N)cc2)nc(OC)n1 [sulfadimethoxine]
Response line: > 256 µg/mL

Prompt line: Please give measured minimum inhibitory concentration of the following entry: CC1(C)S[C@@H]2[C@H](NC(=O)[C@H](N)c3ccccc3)C(=O)N2[C@H]1C(=O)O [Ampicillin]
Response line: ≤ 0.25 µg/mL

====

Tested on: Mannheimia haemolytica
protocol text: minimum inhibitory concentration (MIC)
conditions used: isolate (source animal id): 262
value type: minimum inhibitory concentration

Worked examples, 2 compounds total:
COc1cc(NS(=O)(=O)c2ccc(N)cc2)nc(OC)n1 > 256 µg/mL
CC[C@H]1OC(=O)C[C@@H](O)[C@H](C)[C@@H](O[C@@H]2O[C@H](C)[C@@H](O)[C@H](N(C)C)[C@H]2O)[C@@H](CCN2C[C@H](C)C[C@H](C)C2)C[C@@H](C)C(=O)/C=C/C(C)=C/[C@@H]1CO[C@@H]1O[C@H](C)[C@@H](O)[C@@H](OC)[C@H]1OC > 16 µg/mL

# input for lookup
Prompt line: Provide the reported minimum inhibitory concentration (system: Mannheimia haemolytica) for "CC1(C)S[C@@H]2[C@H](NC(=O)[C@H](N)c3ccccc3)C(=O)N2[C@H]1C(=O)O"
Response line: > 16 µg/mL

====

The reader will find reported minimum inhibitory concentration values listed item by item below.
Tested on: Histophilus somni
protocol text: minimum inhibitory concentration (MIC)
conditions used: isolate (source animal id): 258

CCCN1C[C@H](C)[C@@H](O)[C@](C)(O)[C@@H](CC)OC(=O)[C@H](C)[C@@H](O[C@H]2C[C@@](C)(OC)[C@@H](O)[C@H](C)O2)[C@H](C)[C@@H](O[C@@H]2O[C@H](C)C[C@H](N(C)C)[C@H]2O)[C@](C)(O)C[C@H]1C ≤ 1 µg/mL
CCCNC[C@]1(O)[C@H](C)O[C@@H](O[C@H]2[C@H](C)[C@@H](O[C@@H]3O[C@H](C)C[C@H](N(C)C)[C@H]3O)[C@](C)(O)C[C@@H](C)CN[C@H](C)[C@@H](O)[C@](C)(O)[C@@H](CC)OC(=O)[C@@H]2C)C[C@@]1(C)OC ≤ 8 µg/mL

Now for the compound whose minimum inhibitory concentration we want.
Prompt line: In one line, give reported minimum inhibitory concentration of the entry "CCN1CCN(c2cc3c(cc2F)c(=O)c(C(=O)O)cn3C2CC2)CC1" .
Response line: ≤ 0.12 µg/mL

====

// values below are reported minimum inhibitory concentration
Tested on: Mannheimia haemolytica
protocol text: minimum inhibitory concentration (MIC)
conditions used: isolate (source animal id): 37

Known minimum inhibitory concentration results, listed for orientation:
COc1cc(NS(=O)(=O)c2ccc(N)cc2)nc(OC)n1 > 256 µg/mL
COc1cc(Cc2cnc(N)nc2N)cc(OC)c1OC.Cc1cc(NS(=O)(=O)c2ccc(N)cc2)no1 ≤ 2 µg/mL

Prompt line: Tell us which minimum inhibitory concentration value is on record for "NC[C@@H]1O[C@H](O[C@H]2[C@@H](O)[C@H](O[C@@H]3[C@@H](O)[C@H](N)C[C@H](N)[C@H]3O[C@H]3O[C@H](CN)[C@@H](O)[C@H](O)[C@H]3N)O[C@@H]2CO)[C@H](N)[C@@H](O)[C@@H]1O"
Response line: > 32 µg/mL

====

System: Histophilus somni
protocol text: minimum inhibitory concentration (MIC)
conditions used: isolate (source animal id): 266
Property: minimum inhibitory concentration; scope: individual compounds

// worked examples, minimum inhibitory concentration included
COc1cc(Cc2cnc(N)nc2N)cc(OC)c1OC.Cc1cc(NS(=O)(=O)c2ccc(N)cc2)no1 ≤ 2 µg/mL
NC[C@@H]1O[C@H](O[C@H]2[C@@H](O)[C@H](O[C@@H]3[C@@H](O)[C@H](N)C[C@H](N)[C@H]3O[C@H]3O[C@H](CN)[C@@H](O)[C@H](O)[C@H]3N)O[C@@H]2CO)[C@H](N)[C@@H](O)[C@@H]1O > 32 µg/mL

Query compound follows.
Prompt line: Give me measured minimum inhibitory concentration, please, for this compound: "CCCNC[C@]1(O)[C@H](C)O[C@@H](O[C@H]2[C@H](C)[C@@H](O[C@@H]3O[C@H](C)C[C@H](N(C)C)[C@H]3O)[C@](C)(O)C[C@@H](C)CN[C@H](C)[C@@H](O)[C@](C)(O)[C@@H](CC)OC(=O)[C@@H]2C)C[C@@]1(C)OC"
Response line: ≤ 8 µg/mL
